- Tested on: HOP-62
- Measurement Description: NCI tumour cell line growth inhibition, 48 h
Activity calls are given as the source filed them. Cut-off read from the data, not from the text of the source: active = GI50 up to about 1.1 µM and inactive = higher.
Readout Name: GI50

- COC1CCC(OC)C(C2(C3CC(OC)CCC3OC)OC(=O)c3ccccc32)C1 (centres undefined): > 100 µM (inactive)
- Nc1ncnc(NC2C=C(CO)C(O)C2O)c1[N+](=O)[O-] (centres undefined): > 100 µM (inactive)
- CC1=CC(C)C(C)N(CC2=NCCN2)c2ccccc21 (centres undefined): > 100 µM (inactive)
- Clc1ccc(-c2ccc(-c3nn4c(CNc5ccccc5)nnc4s3)o2)c(Cl)c1: > 100 µM (inactive)
- Oc1ccc2c3c1OC1c4[nH]c5c(c4CC4(O)C(C2)N(CC2CC2)CC[C@]314)CC1(O)C2Cc3ccc(O)c4c3[C@@]1(CCN2CC1CC1)C5O4 (some centres undefined): 77.3 µM (inactive)
- Cc1c(/C=N/NC(=S)Nc2ccc([N+](=O)[O-])cc2)c(=O)n(-c2ccccc2)n1C: 11.6 µM (inactive)
- Cc1ccc(C(=O)NC2CCCCC2)cc1/N=N/N(C)C: > 100 µM (inactive)
- COc1cc(C(=O)OC2CC(C)=CC[C@@]3(C)CC[C@](O)(C(C)C)C23)ccc1O (some centres undefined): 17.2 µM (inactive)
- COC(=O)[C@]1(C)CCC[C@@]2(C)C1CCC1=C[C@@]3(C(C)C)CC[C@]12OO3 (some centres undefined): 36.9 µM (inactive)
